These entries and their values trace back to patent US20190218277A1.

molecular target: T1, Recombinant soluble E protein (0.8E-His) from DENV-1 (DENV-1, UniProt P27909 281-675)
T1 construct: also called DENV-1 E protein; DV1
Assay Endpoint: log10(Kd) (log10 of the value in nM)
Values are log10 of Kd in nM.

Study these solved cases before continuing.
DG_3CH1049-SG182/3CL119-SK1 (antibody, V domains shown) VH: QVQLVQSGAEVKKPGASVKVSCKASGYTFTSYYMHWVRQAPGQGLEWMGVINPRGGSRRSAQKFQGRVTMTRDTSTSTVYMELSSLRSEDTAVYYCARGGEALFYDSYTTPFDGGSWWFDPWGQGSLVTVSS VL: DIQLTQSPSSLSASVGDRVTFTCQASQEIRKYLNWYQQKPGKAPKLLIYDASNLKTGVPSRFSGSGSGTDFTFTISSLQPEDVATYYCQQFDDLPITFGQGTRLQIKR | 0.24
DG_3CH1049-SG182/3CL633-SK1 (antibody, V domains shown) VH: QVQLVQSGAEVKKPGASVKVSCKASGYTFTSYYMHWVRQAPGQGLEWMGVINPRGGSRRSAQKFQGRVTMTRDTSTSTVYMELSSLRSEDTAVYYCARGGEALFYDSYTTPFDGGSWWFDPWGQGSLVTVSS VL: DIQLTQSPSSLSASVGDRVTITCQASQDIRKYLNWYQQKPGKAPKLLIYDASNLKTGVPSRFSGSGSGTDFTLTISSLQPEDVATYYCQQFDDLPITFGQGTRLQIKR | 0.24
DG_3CH-SG182/3CL-SK1 (antibody, human IgG1, kappa, V domains shown) VH: QVQLVQSGPDVEKPGASVKVSCKASGYTFTSNYIHWVRQAPGQGLEWMGVINPRGGSTASAQKFQGRITMTRDTSTSTVYMELSSLRSDDTAVYYCARGGRALFYDSYTTPRDGGSWWFDPWGQGSLVTVSS VL: DIQLTQSPSSLSASVGDRVTFTCQASQDIRKYLNWYQQKPGKAPKLLIYDASNLKTGVPSRFSGSGSGTDFTFTISSLQPEDVATYYCQQFDDLPITFGQGTRLQIKR | 1.35
DG_3CH1000-SG182/3CL666-SK1 (antibody, V domains shown) VH: QVQLVQSGPDVEKPGASVKVSCKASGYTFTSYYMHWVRQAPGQGLEWMGVINPRGGSRRSAQKFQGRITMTRDTSTSTVYMELSSLRSEDTAVYYCARGGRALFYDSYTTPFDGGSWWFDPWGQGSLVTVSS VL: DIQLTQSPSSLSASVGDRVTITCQASQEIRKYLNWYQQKPGKAPKLLIYDASNLKTGVPSRFSGSGSGTDFTLTISSLQPEDVATYYCQQFDDLPITFGQGTRLQIKR | 0.22

Read the entry DG_3CH989-SG182/3CL633-SK1 (antibody, V domains shown) VH: QVQLVQSGAEVKKPGASVKVSCKASGYTFTSNYIHWVRQAPGQGLEWMGVINPRGGSRRSAQKFQGRVTMTRDTSTSTVYMELSSLRSEDTAVYYCARGGRALFYDSYTTPFDGGSWWFDPWGQGSLVTVSS VL: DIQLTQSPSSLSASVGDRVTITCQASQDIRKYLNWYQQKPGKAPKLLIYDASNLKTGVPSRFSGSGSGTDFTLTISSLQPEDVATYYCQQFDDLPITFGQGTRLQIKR and write its reported log10(Kd).
0.19
